# Target: MDH1 (Homo sapiens, UniProt P40925)
# Sequence (P40925 1-334): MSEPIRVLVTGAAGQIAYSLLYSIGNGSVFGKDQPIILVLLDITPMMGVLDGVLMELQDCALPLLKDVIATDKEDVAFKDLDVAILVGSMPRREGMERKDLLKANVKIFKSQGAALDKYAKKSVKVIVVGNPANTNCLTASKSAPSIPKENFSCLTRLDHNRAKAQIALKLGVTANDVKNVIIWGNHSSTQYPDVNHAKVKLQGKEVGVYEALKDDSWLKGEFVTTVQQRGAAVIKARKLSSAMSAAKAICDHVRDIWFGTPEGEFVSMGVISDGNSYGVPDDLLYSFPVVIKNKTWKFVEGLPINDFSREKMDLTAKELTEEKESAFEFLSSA
# Protocol: MDH1 inhibitory activity (in vitro, NADH oxidation, absorbance 340 nm)
# Condition Context: 0.25 nM MDH1 recombinant protein, 200 μM oxaloacetate, 30 minutes
Endpoint Name: IC50

Sample records with IC50:
# Molecule Smiles, Endpoint Name, Obs Value
rows = [
    ("COC(=O)c1cc(NC(=O)/C=C/Oc2ccc(C(C)(C)CC(C)(C)C)cc2)c(C)cc1C", "IC50", "5 to 10 µM"),
    ("CC(C)(C)CC(C)(C)c1ccc(OCC(=O)N2CCN(Cc3ccc(C(F)(F)F)cc3)CC2)cc1", "IC50", "1 to 5 µM"),
    ("COC(=O)c1ccc(O)c(NC(=O)CCCOc2ccc(C(C)(C)CC(C)(C)C)cc2)c1", "IC50", "5 to 10 µM"),
    ("CC(C)(C)CC(C)(C)c1ccc(OCC(=O)Nc2ccc(C(F)(F)F)cc2)cc1", "IC50", "1 to 5 µM"),
    ("CC(C)(C)CC(C)(C)c1ccc(O/C=C/C(=O)On2nnc3ccccc32)cc1", "IC50", "> 10 µM"),
    ("COC(=O)[C@@H](NC(=O)c1cccc(NC(=O)CCOc2ccc(C(C)(C)CC(C)(C)C)cc2)c1)C(C)C", "IC50", "> 10 µM"),
    ("CC(C)OC(=O)c1cccc(NC(=O)/C=C/Oc2ccc(C(C)(C)CC(C)(C)C)cc2)c1", "IC50", "> 10 µM"),
    ("CCCCc1ccc(OCC(=O)Nc2cccc(C(=O)OC)c2)cc1", "IC50", "5 to 10 µM"),
]

Measured IC50 (MDH1 (Homo sapiens, UniProt P40925)), entry "COC(=O)c1ccc(OCCN2CCOCC2)c(NC(=O)COc2ccc(C(C)(C)CC(C)(C)C)cc2)c1" : > 10 µM

Measured IC50 (MDH1 (Homo sapiens, UniProt P40925)), entry "C#CCOC(=O)c1ccc(O)c(NC(=O)COc2ccc(C(C)(C)CC(C)(C)C)cc2)c1" : 1 to 5 µM

Measured IC50 (MDH1 (Homo sapiens, UniProt P40925)), entry "COC(=O)c1ccc(O)c(NC(=O)/C=C/Oc2ccc(C(C)(C)CC(C)(C)C)cc2)c1" : 1 to 5 µM

Measured IC50 (MDH1 (Homo sapiens, UniProt P40925)), entry "COC(=O)c1cccc(NC(=O)COc2ccc(C(C)(C)CC(C)(C)C)cc2)c1" : 5 to 10 µM

Measured IC50 (MDH1 (Homo sapiens, UniProt P40925)), entry "COC(=O)c1ccc(OC)c(NC(=O)COc2ccc(C(C)(C)CC(C)(C)C)cc2)c1" : 1 to 5 µM
